The origin of these recorded values is PubChem BioAssay AID1159580.

assay: chemical genetic growth profiling, strain panel (AID 1159580);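 also: tested at 20 µM; growth read once vehicle control cultures reached saturation at 30 °C; 1 = growth at the plate median or of vehicle wells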; conditions: S. cerevisiae deletion strains, growth OD, locus YJL129C, strain trk1, stronger effect = lower value
The campaign covered roughly 5,500 compounds. About 2,000 (36%) were called active. Roughly 18% stayed inconclusive and do not appear here. Some of the results follow.
parameter: normalized growth

>  <compound>
C[C@]12CCC3c4ccc(OS(=O)(=O)O)cc4CCC3C1CCC2=O (some centres undefined)

>  <recorded-number>
0.958

$$$$
>  <compound>
NCCCCN=C(N)N

>  <recorded-number>
1.06

$$$$
>  <compound>
C#C[C@]1(O)CCC2C3CCc4cc(OC)ccc4C3CC[C@@]21C (some centres undefined)

>  <recorded-number>
0.965

$$$$
>  <compound>
CO[C@@H]1[C@@H](O[C@@H]2O[C@H](C)[C@@H](O[C@H]3C[C@@](C)(O)[C@H](O)[C@H](C)O3)[C@H](N(C)C)[C@H]2O)[C@@H](CC=O)C[C@@H](C)[C@@H](O[C@H]2CC[C@H](N(C)C)[C@@H](C)O2)/C=C/C=C/C[C@H](C)OC(=O)C[C@H]1O

>  <recorded-number>
1

$$$$

---

test: chemical genetic growth profiling, strain panel (AID 1159580);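 also: tested at 20 µM; growth read once vehicle control cultures reached saturation at 30 °C; 1 = growth at the plate median or of vehicle wells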; settings: S. cerevisiae deletion strains, growth OD, locus YDR001C, strain nth1, stronger effect = lower value
The campaign covered roughly 5,500 compounds. About 2,000 (36%) were called active. Roughly 18% stayed inconclusive and do not appear here. This is one part of the list.

>  <compound>
C=CCc1cc(OC)c2c(c1OC)OCO2

>  <normalized growth>
0.93

$$$$
>  <compound>
CC[C@@H](C(=O)[C@@H](C)[C@@H](O)[C@H](C)[C@@H]1O[C@@H]([C@@H](CC)C(=O)O)CC[C@@H]1C)[C@H]1OC2(C=C[C@@H](O)[C@]3(CC[C@@](C)([C@H]4CC[C@](O)(CC)[C@H](C)O4)O3)O2)[C@H](C)C[C@@H]1C (stereo not given in full)

>  <normalized growth>
0.929

$$$$
>  <compound>
O=C(O)c1cc(=O)c2c(OCC(O)COc3cccc4oc(C(=O)O)cc(=O)c34)cccc2o1

>  <normalized growth>
0.971

$$$$
>  <compound>
O=C(NC(=O)c1c(F)cccc1F)Nc1cc(Cl)c(OC(F)(F)C(F)C(F)(F)F)cc1Cl (stereo not given)

>  <normalized growth>
0.991

$$$$
>  <compound>
C[C@@H]1C[C@@H]([C@H](O)CC2CC(=O)NC(=O)C2)C(=O)[C@@H](C)C1

>  <normalized growth>
0.0564

$$$$
>  <compound>
CC12CCC(CC1)C(C)(C)O2

>  <normalized growth>
0.995

$$$$
>  <compound>
Cc1cccc(CN2CCN(C(c3ccccc3)c3ccc(Cl)cc3)CC2)c1 (stereo not given)

>  <normalized growth>
0.978

$$$$
>  <compound>
O=C(/C=C/c1ccc(O)c(O)c1)O[C@@H]1C[C@](O)(C(=O)O)C[C@@H](O)[C@H]1O

>  <normalized growth>
0.98

$$$$
>  <compound>
CC[C@@H]1[C@@H](O)N2C3C[C@H]1C1C(O)[C@]4(C[C@@H]12)c1ccccc1N(C)[C@@H]34 (stereo not given in full)

>  <normalized growth>
1.02

$$$$
>  <compound>
Nc1c(Br)cc(Br)cc1CNC1CCC(O)CC1 (stereo not given)

>  <normalized growth>
1.01

$$$$
>  <compound>
Oc1ccc(/C=C/c2cc(O)cc(O)c2)cc1

>  <normalized growth>
0.999

$$$$
>  <compound>
CCOC(N)=O

>  <normalized growth>
1

$$$$
>  <compound>
COc1ccc(C[C@H](N)C(=O)N[C@@H]2[C@@H](CO)OC(n3cnc4c(N(C)C)ncnc43)[C@@H]2O)cc1 (stereo not given in full)

>  <normalized growth>
0.982

$$$$
>  <compound>
O=c1cccc2n1C[C@H]1CNCC2C1

>  <normalized growth>
1.01

$$$$
>  <compound>
CN(Cc1cc(Br)cc(Br)c1N)C1CCCCC1

>  <normalized growth>
1.03

$$$$
>  <compound>
CC[C@]12CCCN3CCc4c(n(c5ccccc45)C(=O)C1)[C@@H]32

>  <normalized growth>
0.998

$$$$
>  <compound>
C[C@@H]1CC2C3CCC4=CC(=O)C=C[C@]4(C)[C@@]3(F)[C@@H](O)C[C@]2(C)[C@@]1(O)C(=O)COP(=O)(O)O (stereo not given in full)

>  <normalized growth>
0.94

$$$$
>  <compound>
C=CCN1CC[C@]23c4c5ccc(O)c4OC2C(=O)CC[C@@]3(O)[C@H]1C5 (stereo not given in full)

>  <normalized growth>
0.971

$$$$
>  <compound>
OC/C=C/c1ccc(O)c(O)c1

>  <normalized growth>
0.994

$$$$
>  <compound>
CO[C@@H]1[C@@H](O[C@@H]2O[C@H](C)[C@@H](O[C@H]3C[C@@](C)(O)[C@H](O)[C@H](C)O3)[C@H](N(C)C)[C@H]2O)[C@@H](CC=O)C[C@@H](C)[C@@H](O[C@H]2CC[C@H](N(C)C)[C@@H](C)O2)/C=C/C=C/C[C@H](C)OC(=O)C[C@H]1O

>  <normalized growth>
1.01

$$$$
>  <compound>
CCOC(=O)c1ccc(N)cc1

>  <normalized growth>
0.999

$$$$
>  <compound>
CC[C@]12CCCN3CCc4c(n(c5ccccc45)[C@](O)(C(=O)OC)C1)[C@@H]32

>  <normalized growth>
0.98

$$$$
>  <compound>
CCCNC(C)C(=O)Nc1ccccc1C (stereo not given)

>  <normalized growth>
1

$$$$
>  <compound>
COS(C)(=O)=O

>  <normalized growth>
0.997

$$$$
>  <compound>
CCOC(=O)C1=C[C@]2(CC)CCCN3CCc4c(n1c1ccccc41)[C@@H]32

>  <normalized growth>
1.03

$$$$

---

assay: chemical genetic growth profiling, strain panel (AID 1159580);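 also: tested at 20 µM; growth read once vehicle control cultures reached saturation at 30 °C; 1 = growth at the plate median or of vehicle wells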; settings: S. cerevisiae deletion strains, growth OD, locus YDL192W, strain arf1, stronger effect = lower value
The whole screen tested about 5,500 compounds, of which about 2,000 (36%) were called active. Inconclusive results (about 18%) are left out. The list shows a part of the results.
# normalized growth annotations

>  <compound>
C=CC1=C(C)/C(=C/c2[nH]c(Cc3[nH]c(/C=C4\NC(=O)C(C)=C4C=C)c(C)c3CCC(=O)O)c(CCC(=O)O)c2C)NC1=O

>  <normalized growth>
1.02

$$$$
>  <compound>
CCOP(=S)(OCC)SCSP(=S)(OCC)OCC

>  <normalized growth>
0.979

$$$$
>  <compound>
COc1ccc2c(c1O)-c1c(OC)c(OC)cc3c1[C@H](C2)N(C)CC3

>  <normalized growth>
1.03

$$$$
>  <compound>
CCOP(=S)(OCC)SCSCC

>  <normalized growth>
1

$$$$
>  <compound>
CC(=O)N[C@@H]1[C@@H](C(O)[C@H](O)CO)O[C@](O)(C(=O)O)C[C@@H]1O (stereo partly specified)

>  <normalized growth>
0.999

$$$$
>  <compound>
CCOP(=S)(OCC)SCCSCC

>  <normalized growth>
0.981

$$$$

---

assay: chemical genetic growth profiling, strain panel (AID 1159580);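 also: tested at 20 µM; growth read once vehicle control cultures reached saturation at 30 °C; 1 = growth at the plate median or of vehicle wells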; settings: S. cerevisiae deletion strains, growth OD, locus YJL095W, strain BCK1
Among all 5,500 compounds or so, about 2,000 (36%) were called active. Another 18% or so got no clear call; they are omitted. No stated cut-off is given here; in the data, active means normalized growth mostly below about 0.91 (no sharp cut-off); inconclusive means no clear call, values can overlap the other calls; inactive means mostly above about 0.92. The list shows a part of the results.
Outcome codes: y = active, n = inactive

>  <compound>
CCOC(=O)c1c(N=Cc2cc(Br)c(Br)cc2O)sc2c1CCCC2

>  <cat>
y

$$$$
>  <compound>
C#C[C@]1(O)CCC2C3CCc4cc(OC)ccc4C3CC[C@@]21C (some centres undefined)

>  <cat>
n

$$$$
>  <compound>
NC(=NC(=O)c1ccc(Cl)cc1)c1cccs1

>  <cat>
n

$$$$
>  <compound>
Nc1ccc(S(=O)(=O)O)cc1

>  <cat>
n

$$$$
>  <compound>
COc1cc(Cl)c(NS(=O)(=O)c2cc(Br)c(Br)s2)c(OC)c1

>  <cat>
n

$$$$
>  <compound>
COc1cc(N=Cc2cc(Cl)cc(Cl)c2OS(=O)(=O)c2ccc(C)cc2)c(OC)cc1Cl

>  <cat>
n

$$$$
>  <compound>
c1ccc(-c2ccc(C(c3ccccc3)n3ccnc3)cc2)cc1 (centres undefined)

>  <cat>
y

$$$$
>  <compound>
O=C(Nc1ccc(Cl)cc1Cl)c1cnccc1C(F)(F)F

>  <cat>
n

$$$$
>  <compound>
C[C@]12CCC3c4ccc(OS(=O)(=O)O)cc4CCC3C1CCC2=O (some centres undefined)

>  <cat>
n

$$$$
>  <compound>
COS(C)(=O)=O

>  <cat>
n

$$$$
>  <compound>
Nc1ccc(S(=O)(=O)Nc2nccs2)cc1

>  <cat>
n

$$$$
>  <compound>
CN1CCN(C(c2ccccc2)c2ccc(Cl)cc2)CC1 (centres undefined)

>  <cat>
n

$$$$
>  <compound>
Nc1nc(N)c2nc(CNc3ccc(C(=O)NC(CCC(=O)O)C(=O)O)cc3)cnc2n1 (centres undefined)

>  <cat>
n

$$$$
>  <compound>
COc1cc(C(=O)Oc2c(Cl)cc(Cl)cc2C=Nc2cccc(C(F)(F)F)c2)cc(OC)c1OC

>  <cat>
y

$$$$
>  <compound>
CCn1cc(C(=O)O)c(=O)c2cnc(N3CCCC3)nc21

>  <cat>
n

$$$$
>  <compound>
Nc1cc(-c2ccc(OC(F)(F)F)cc2)nn1-c1ccc(Cl)c(Cl)c1

>  <cat>
y

$$$$
>  <compound>
CC1(C)O[C@@H]2CC3C4CCC5=CC(=O)C=C[C@]5(C)C4[C@@H](O)C[C@]3(C)[C@]2(C(=O)CO)O1 (some centres undefined)

>  <cat>
n

$$$$
>  <compound>
COc1ccccc1N1CCNCC1

>  <cat>
n

$$$$
>  <compound>
O=C1OC(CN2CCOCC2)CN1/N=C\c1ccc([N+](=O)[O-])o1 (centres undefined)

>  <cat>
n

$$$$
>  <compound>
COP(=S)(OC)Oc1ccc(SC)c(C)c1

>  <cat>
n

$$$$
>  <compound>
COc1ccc(/C=C/C(=O)c2ccc(O)cc2O)cc1

>  <cat>
y

$$$$
>  <compound>
COc1ccc(/C=C/C(=O)c2cc(O)ccc2O)cc1

>  <cat>
y

$$$$
>  <compound>
CC1CC2C(C(O)CC3(C)C2CCC3(O)C(=O)COC(=O)CCC(=O)O)C2(C)C=CC(=O)C=C12 (centres undefined)

>  <cat>
n

$$$$
>  <compound>
COCCOc1ccccc1NC(=S)SCCSC(=S)Nc1ccccc1OCCOC

>  <cat>
n

$$$$
